src = patent US20220056104A1

Each entry below carries its reported Rel EC50.
Target: T1, Recombinant DR3-Fc (R&D Systems, cat. #943-D3) (UniProt Q93038 25-199, limits assumed)
T1 construct: dimeric MW~92 kDa; also called DR3 receptor; Fc-DR3; not shown: Fc part of the bought fusion
T1 sequence (looked up): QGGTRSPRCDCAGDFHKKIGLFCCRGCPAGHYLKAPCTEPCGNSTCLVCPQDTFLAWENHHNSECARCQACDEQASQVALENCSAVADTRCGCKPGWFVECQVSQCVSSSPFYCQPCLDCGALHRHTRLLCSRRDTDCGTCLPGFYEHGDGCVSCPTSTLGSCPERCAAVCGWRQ
Assay: ELISA, DR3-Fc immobilized

Observe how each entry below is paired with its result.
binder | Rel EC50
TL1W41 (His-TEV-TL1A E120A) (ligand, also called TL1W41 (E120A)) HHHHHHENLYFQGLKGQEFAPSHQQVYAPLRADGDKPRAHLTVVRQTPTQHFKNQFPALHWAHELGLAFTKNRMNYTNKFLLIPESGDYFIYSQVTFRGMTSECSEIRQAGRPNKPDSITVVITKVTDSYPEPTQLLMGTKSVCEVGSNWFQPIYLGAMFSLQEGDKLMVNVSDISLVDYTKEDKTFFGAFLL | 3.8 ratio (head: nM)
TL1W136 (His-TEV-TL1A K240F) (ligand, also called TL1W136 (K240F)) HHHHHHENLYFQGLKGQEFAPSHQQVYAPLRADGDKPRAHLTVVRQTPTQHFKNQFPALHWEHELGLAFTKNRMNYTNKFLLIPESGDYFIYSQVTFRGMTSECSEIRQAGRPNKPDSITVVITKVTDSYPEPTQLLMGTKSVCEVGSNWFQPIYLGAMFSLQEGDKLMVNVSDISLVDYTFEDKTFFGAFLL | 10.1 ratio (head: nM)
TL1W103 (His-TEV-TL1A T185A) (ligand, also called TL1W103 (T185A)) HHHHHHENLYFQGLKGQEFAPSHQQVYAPLRADGDKPRAHLTVVRQTPTQHFKNQFPALHWEHELGLAFTKNRMNYTNKFLLIPESGDYFIYSQVTFRGMTSECSEIRQAGRPNKPDSITVVITKVADSYPEPTQLLMGTKSVCEVGSNWFQPIYLGAMFSLQEGDKLMVNVSDISLVDYTKEDKTFFGAFLL | 2.2 ratio (head: nM)
TL1W102 (His-TEV-TL1A S176K) (ligand, also called TL1W102 (S176K)) HHHHHHENLYFQGLKGQEFAPSHQQVYAPLRADGDKPRAHLTVVRQTPTQHFKNQFPALHWEHELGLAFTKNRMNYTNKFLLIPESGDYFIYSQVTFRGMTSECSEIRQAGRPNKPDKITVVITKVTDSYPEPTQLLMGTKSVCEVGSNWFQPIYLGAMFSLQEGDKLMVNVSDISLVDYTKEDKTFFGAFLL | 6.9 ratio (head: nM)
TL1W137 (His-TEV-TL1A K240S) (ligand, also called TL1W137 (K240S)) HHHHHHENLYFQGLKGQEFAPSHQQVYAPLRADGDKPRAHLTVVRQTPTQHFKNQFPALHWEHELGLAFTKNRMNYTNKFLLIPESGDYFIYSQVTFRGMTSECSEIRQAGRPNKPDSITVVITKVTDSYPEPTQLLMGTKSVCEVGSNWFQPIYLGAMFSLQEGDKLMVNVSDISLVDYTSEDKTFFGAFLL | 12.8 ratio (head: nM)
TL1W114 (His-TEV-TL1A T192A) (ligand, also called TL1W114 (T192A)) HHHHHHENLYFQGLKGQEFAPSHQQVYAPLRADGDKPRAHLTVVRQTPTQHFKNQFPALHWEHELGLAFTKNRMNYTNKFLLIPESGDYFIYSQVTFRGMTSECSEIRQAGRPNKPDSITVVITKVTDSYPEPAQLLMGTKSVCEVGSNWFQPIYLGAMFSLQEGDKLMVNVSDISLVDYTKEDKTFFGAFLL | 0.9 ratio (head: nM)
TL1W124 (His-TEV-TL1A N207K) (ligand, also called TL1W124 (N207K)) HHHHHHENLYFQGLKGQEFAPSHQQVYAPLRADGDKPRAHLTVVRQTPTQHFKNQFPALHWEHELGLAFTKNRMNYTNKFLLIPESGDYFIYSQVTFRGMTSECSEIRQAGRPNKPDSITVVITKVTDSYPEPTQLLMGTKSVCEVGSKWFQPIYLGAMFSLQEGDKLMVNVSDISLVDYTKEDKTFFGAFLL | 4.2 ratio (head: nM)
TL1W80 (His-TEV-TL1A K111A) (ligand, also called TL1W80 (K111A)) HHHHHHENLYFQGLKGQEFAPSHQQVYAPLRADGDKPRAHLTVVRQTPTQHFANQFPALHWEHELGLAFTKNRMNYTNKFLLIPESGDYFIYSQVTFRGMTSECSEIRQAGRPNKPDSITVVITKVTDSYPEPTQLLMGTKSVCEVGSNWFQPIYLGAMFSLQEGDKLMVNVSDISLVDYTKEDKTFFGAFLL | 1.1 ratio (head: nM)
TL1W40 (His-TEV-TL1A L123S) (ligand, also called TL1W40 (L123S)) HHHHHHENLYFQGLKGQEFAPSHQQVYAPLRADGDKPRAHLTVVRQTPTQHFKNQFPALHWEHESGLAFTKNRMNYTNKFLLIPESGDYFIYSQVTFRGMTSECSEIRQAGRPNKPDSITVVITKVTDSYPEPTQLLMGTKSVCEVGSNWFQPIYLGAMFSLQEGDKLMVNVSDISLVDYTKEDKTFFGAFLL | 1.2 ratio (head: nM)
TL1W127 (His-TEV-TL1A Y238A) (ligand, also called TL1W127 (Y238A)) HHHHHHENLYFQGLKGQEFAPSHQQVYAPLRADGDKPRAHLTVVRQTPTQHFKNQFPALHWEHELGLAFTKNRMNYTNKFLLIPESGDYFIYSQVTFRGMTSECSEIRQAGRPNKPDSITVVITKVTDSYPEPTQLLMGTKSVCEVGSNWFQPIYLGAMFSLQEGDKLMVNVSDISLVDATKEDKTFFGAFLL | 176 ratio (head: nM)

## Input Consider the binder shown here: TL1W82 (His-TEV-TL1A K111E) (ligand, also called TL1W82 (K111E)) HHHHHHENLYFQGLKGQEFAPSHQQVYAPLRADGDKPRAHLTVVRQTPTQHFENQFPALHWEHELGLAFTKNRMNYTNKFLLIPESGDYFIYSQVTFRGMTSECSEIRQAGRPNKPDSITVVITKVTDSYPEPTQLLMGTKSVCEVGSNWFQPIYLGAMFSLQEGDKLMVNVSDISLVDYTKEDKTFFGAFLL What is its recorded Rel EC50?
## Output 1 ratio (head: nM)
